Reference for the values: patent US20230111914A1

Test system: IFNγ-induced NO production in RAW 264.7 cells
Assay: Nitric oxide suppression assay (IFNγ-induced NO production, Griess nitrite readout)
Assay type: cell-based, mouse
Marks after values point to notes of the source that are not given here.
Property label: NO IC50 Rel. to RTA 402

Answered examples (2):
- CN1CCN(C[C@]23CCC(C)(C)C[C@H]2[C@H]2C(=O)C=C4[C@@]5(C)C=C(C#N)C(=O)C(C)(C)[C@@H]5CC[C@@]4(C)[C@]2(C)CC3)C1=O: 0.64 ± 0.26^d fold
- CC1(C)CC[C@]2(CN3CC(O)C3)CC[C@]3(C)C(O)(C(=O)C=C4[C@@]5(C)C=C(C#N)C(=O)C(C)(C)[C@@H]5CC[C@]43C)[C@@H]2C1 (stereo partly shown): 1.64 ± 0.16^e fold

Query: Query NO IC50 Rel. to RTA 402 for COC(=O)[C@]12CCC(C)(C)C[C@H]1[C@H]1C(=O)C=C3[C@@]4(C)C=C(C#N)C(=O)C(C)(C)[C@@H]4CC[C@@]3(C)[C@]1(C)CC2 [RTA 402, reference compound]
Result: 1.00 ± 0.00 fold

Query: # return recorded NO IC50 Rel. to RTA 402 for entry CC1(C)CC[C@]2(n3cc[nH]c3=O)CC[C@]3(C)[C@H](C(=O)C=C4[C@@]5(C)C=C(C#N)C(=O)C(C)(C)[C@@H]5CC[C@]43C)[C@@H]2C1
Result: 4.02 ± 0.61^d fold

Query: Supply reported NO IC50 Rel. to RTA 402 belonging to this compound: CN1CCN([C@]23CCC(C)(C)C[C@H]2[C@H]2C(=O)C=C4[C@@]5(C)C=C(C#N)C(=O)C(C)(C)[C@@H]5CC[C@@]4(C)[C@]2(C)CC3)C1=O
Result: 3.13 ± 0.36^d fold

Query: Hello, please tell me recorded NO IC50 Rel. to RTA 402 for this one: CC1(C)CC[C@]2(CN3C(=O)CCN3C(=O)OC(C)(C)C)CC[C@]3(C)[C@H](C(=O)C=C4[C@@]5(C)C=C(C#N)C(=O)C(C)(C)[C@@H]5CC[C@]43C)[C@@H]2C1
Result: 1.17 ± 0.18^d fold

Query: Quickly give me recorded NO IC50 Rel. to RTA 402 for CNC(=O)N[C@]12CCC(C)(C)C[C@H]1[C@H]1C(=O)C=C3[C@@]4(C)C=C(C#N)C(=O)C(C)(C)[C@@H]4CC[C@@]3(C)[C@]1(C)CC2 [Compound 63172, reference compound]
Result: 7.73 fold

Query: Report NO IC50 Rel. to RTA 402 for CC1(C)CC[C@]2(CN3CCC3)CC[C@]3(C)[C@H](C(=O)C=C4[C@@]5(C)C=C(C#N)C(=O)C(C)(C)[C@@H]5CC[C@]43C)[C@@H]2C1
Result: 1.21 ± 0.45^e fold

Query: Give the reported NO IC50 Rel. to RTA 402 for this compound. CC1(C)CC[C@]2(CN3CC(F)(F)C3)CC[C@]3(C)[C@H](C(=O)C=C4[C@@]5(C)C=C(C#N)C(=O)C(C)(C)[C@@H]5CC[C@]43C)[C@@H]2C1
Result: 8.68 ± 2.12^e fold

Query: // Input: CC1(C)CC[C@]2(N3CCNC3=O)CC[C@]3(C)[C@H](C(=O)C=C4[C@@]5(C)C=C(C#N)C(=O)C(C)(C)[C@@H]5CC[C@]43C)[C@@H]2C1 . Output its NO IC50 Rel. to RTA 402 only.
Result: 3.68 ± 0.33^d fold

Query: Give NO IC50 Rel. to RTA 402 for CC1(C)CC[C@]2(n3cccn3)CC[C@]3(C)[C@H](C(=O)C=C4[C@@]5(C)C=C(C#N)C(=O)C(C)(C)[C@@H]5CC[C@]43C)[C@@H]2C1
Result: 2.58 ± 0.60^e fold

Query: In one line, give reported NO IC50 Rel. to RTA 402 of the entry CC1(C)CC[C@]2(CN3CCOC3)CC[C@]3(C)[C@H](C(=O)C=C4[C@@]5(C)C=C(C#N)C(=O)C(C)(C)[C@@H]5CC[C@]43C)[C@@H]2C1 .
Result: 7.54 ± 2.47^d fold

Query: Could you please provide reported NO IC50 Rel. to RTA 402 for CC(=O)N[C@]12CCC(C)(C)C[C@H]1[C@H]1C(=O)C=C3[C@@]4(C)C=C(C#N)C(=O)C(C)(C)[C@@H]4CC[C@@]3(C)[C@]1(C)CC2 [Compound 63170, reference compound] ? Thanks!
Result: 4.95 fold

Query: Supply reported NO IC50 Rel. to RTA 402 belonging to this compound: Cc1cc(C)n(C[C@]23CCC(C)(C)C[C@H]2[C@H]2C(=O)C=C4[C@@]5(C)C=C(C#N)C(=O)C(C)(C)[C@@H]5CC[C@@]4(C)[C@]2(C)CC3)n1
Result: 5.29 ± 1.29^d fold

Query: Return value of NO IC50 Rel. to RTA 402 for input CC1(C)CC[C@]2(CN3CC(O)C3)CC[C@]3(C)[C@H](C(=O)C=C4[C@@]5(C)C=C(C#N)C(=O)C(C)(C)[C@@H]5CC[C@]43C)[C@@H]2C1 , no commentary.
Result: 1.09 ± 0.16^e fold

Query: Look up and report measured NO IC50 Rel. to RTA 402 for this entry: CC1(C)CC[C@]2(CN3CCNC3=O)CC[C@]3(C)[C@H](C(=O)C=C4[C@@]5(C)C=C(C#N)C(=O)C(C)(C)[C@@H]5CC[C@]43C)[C@@H]2C1
Result: 0.51 ± 0.09^e fold

Query: Hello, please tell me recorded NO IC50 Rel. to RTA 402 for this one: CN1CCN([C@]23CCC(C)(C)C[C@H]2[C@H]2C(=O)C=C4[C@@]5(C)C=C(C#N)C(=O)C(C)(C)[C@@H]5CC[C@@]4(C)[C@]2(C)CC3)CC1=O
Result: 3.18 ± 0.67^d fold

Query: // fetch NO IC50 Rel. to RTA 402 given entry CC1(C)CC[C@]2(CN3CC(F)C3)CC[C@]3(C)[C@H](C(=O)C=C4[C@@]5(C)C=C(C#N)C(=O)C(C)(C)[C@@H]5CC[C@]43C)[C@@H]2C1
Result: 2.73 ± 1.01^e fold

Query: Please give the documented NO IC50 Rel. to RTA 402 of CC1(C)CC[C@]2(NNC(=O)C(F)(F)F)CC[C@]3(C)[C@H](C(=O)C=C4[C@@]5(C)C=C(C#N)C(=O)C(C)(C)[C@@H]5CC[C@]43C)[C@@H]2C1
Result: 1.70 ± 0.32^d fold
